- subject.of.test: iNOS (Mus musculus)
- Construct: iNOS was isolated from interferon-γ and lipopolysaacharide(LPS) stimulated mouse macrophage cells (RAW 264.7 cells); endogenous in cells; lysate partially purified on ADP sepharose
- protocol: Nitric oxide synthase activity assay (Griess reagent), iNOS partially purified from interferon-γ/LPS stimulated RAW 264.7 cells
- measurement.conditions: 90 minutes at 37° C
pIC50: −log10 of the molar value.
Listing: pIC50 of selected compounds
property.name: pIC50

compound | property.name | reported.result
CN1CCN(C2=CC(=O)C(=O)c3ccccc32)CC1 | pIC50 | 5.27
N=C(N)N1CCN(C2=CC(=O)C(=O)c3ccccc32)CC1 | pIC50 | 6.17
O=C1C=C(c2ccc[nH]2)c2ccccc2C1=O | pIC50 | 5.13
O=C1C=C(N2CCN(C(=O)c3ccc([N+](=O)[O-])cc3)CC2)c2ccccc2C1=O | pIC50 | 5.21
NCCNC1=CC(=O)C(=O)c2ccccc21 | pIC50 | 4.95
O=C1C=C(Nc2ccccc2)c2ccccc2C1=O | pIC50 | 4.57
O=C1C=C(n2cncn2)c2ccccc2C1=O | pIC50 | 5.11
O=C1C=C(NCCN2CCOCC2)c2ccccc2C1=O | pIC50 | 4.35
O=C1C=C(N2CCc3ccccc32)c2ccccc2C1=O | pIC50 | 4.77
O=C1C=C(N2CCN(C(=O)NCc3ccccc3)CC2)c2ccccc2C1=O | pIC50 | 5.66
O=C1C=C(NCCCn2ccnc2)c2ccccc2C1=O | pIC50 | 4.39
COC(=O)[C@@H]1CCCN1C1=CC(=O)C(=O)c2ccccc21 | pIC50 | 4.36
COC(=O)[C@H](CCC(=O)N1CCN(C2=CC(=O)C(=O)c3ccccc32)CC1)NC(=O)OCC1c2ccccc2-c2ccccc21 | pIC50 | 4.81
O=C1C=C(N2CCNCC2)c2ccccc2C1=O | pIC50 | 5.00
CCN1CCN(C2=CC(=O)C(=O)c3ccccc32)CC1 | pIC50 | 5.10
CC(=O)N1CCN(C2=CC(=O)C(=O)c3ccccc32)CC1 | pIC50 | 5.27
CC1CCCCN1CCCNC1=CC(=O)C(=O)c2ccccc21 (stereo not drawn) | pIC50 | 4.92
CCN(C1=CC(=O)C(=O)c2ccccc21)c1ccccc1 | pIC50 | 4.80
O=C1C(=O)c2c(nc3ccccn23)-c2ccccc21 | pIC50 | 5.64
CC(C)(C)OC(=O)NCCNC1=CC(=O)C(=O)c2ccccc21 | pIC50 | 5.42
O=C1C=C(N2CCCc3ccccc32)c2ccccc2C1=O | pIC50 | 4.89

###

The listing below reports pIC50 for compounds tested on nNOS (Homo sapiens).
Sequence (P29475 whole entry): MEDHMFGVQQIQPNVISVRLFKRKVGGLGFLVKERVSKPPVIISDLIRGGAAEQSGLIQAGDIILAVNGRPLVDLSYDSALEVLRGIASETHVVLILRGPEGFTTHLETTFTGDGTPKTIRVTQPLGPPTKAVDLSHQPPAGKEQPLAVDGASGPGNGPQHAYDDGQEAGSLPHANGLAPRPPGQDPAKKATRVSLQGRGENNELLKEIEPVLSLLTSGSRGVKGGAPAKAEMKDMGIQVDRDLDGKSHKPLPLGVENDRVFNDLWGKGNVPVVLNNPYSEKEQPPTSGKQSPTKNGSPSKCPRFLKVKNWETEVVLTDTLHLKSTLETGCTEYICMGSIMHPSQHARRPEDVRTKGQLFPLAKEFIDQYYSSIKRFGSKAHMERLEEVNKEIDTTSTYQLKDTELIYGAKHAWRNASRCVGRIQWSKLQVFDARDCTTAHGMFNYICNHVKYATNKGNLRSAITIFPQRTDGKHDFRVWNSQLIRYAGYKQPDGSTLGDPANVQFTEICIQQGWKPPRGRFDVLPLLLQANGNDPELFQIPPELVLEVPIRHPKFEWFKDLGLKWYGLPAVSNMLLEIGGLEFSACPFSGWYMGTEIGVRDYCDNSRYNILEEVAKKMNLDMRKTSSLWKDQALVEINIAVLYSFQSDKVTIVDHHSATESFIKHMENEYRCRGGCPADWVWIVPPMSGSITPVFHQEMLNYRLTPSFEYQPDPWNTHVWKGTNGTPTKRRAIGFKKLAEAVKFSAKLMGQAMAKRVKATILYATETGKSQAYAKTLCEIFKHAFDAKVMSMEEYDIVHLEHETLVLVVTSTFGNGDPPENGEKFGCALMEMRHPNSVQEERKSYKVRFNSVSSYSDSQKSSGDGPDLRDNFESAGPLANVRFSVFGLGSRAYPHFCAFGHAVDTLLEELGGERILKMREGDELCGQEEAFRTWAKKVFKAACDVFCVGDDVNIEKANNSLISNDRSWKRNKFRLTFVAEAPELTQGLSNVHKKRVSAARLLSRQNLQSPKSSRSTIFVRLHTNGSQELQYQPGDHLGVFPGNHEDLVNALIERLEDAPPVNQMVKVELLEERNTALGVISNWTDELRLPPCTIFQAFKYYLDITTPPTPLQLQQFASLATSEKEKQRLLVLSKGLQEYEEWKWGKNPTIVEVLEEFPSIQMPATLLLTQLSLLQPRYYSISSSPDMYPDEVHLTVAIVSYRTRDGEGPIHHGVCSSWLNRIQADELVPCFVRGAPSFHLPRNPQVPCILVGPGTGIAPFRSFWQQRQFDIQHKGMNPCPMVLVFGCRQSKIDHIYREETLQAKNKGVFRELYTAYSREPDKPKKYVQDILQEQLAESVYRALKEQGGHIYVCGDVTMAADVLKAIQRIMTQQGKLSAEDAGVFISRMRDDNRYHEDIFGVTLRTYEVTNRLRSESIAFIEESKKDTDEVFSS
pIC50: −log10 of the molar value.

compound | pIC50
CC(C)(C)OC(=O)NCCNC1=CC(=O)C(=O)c2ccccc21 [Example 15] | 5.96
O=C1C=C(N2CCN(C(=O)NCc3ccccc3)CC2)c2ccccc2C1=O [Example 19] | 5.68
COC(=O)[C@H](CCC(=O)N1CCN(C2=CC(=O)C(=O)c3ccccc32)CC1)NC(=O)OCC1c2ccccc2-c2ccccc21 [Example 21] | 5.72
O=C1C=C(N2CCNCC2)c2ccccc2C1=O [Example 12] | 5.68
